- Tested on: MDA-MB-231
- assay.summary: NCI tumour cell line growth inhibition, 48 h
The source made the active and inactive calls. Rule as the data show it: active = GI50 up to about 1.1 µM and inactive = higher.
metric.name: GI50

>  <compound>
CCC(C)N1CN(c2ccccc2)C2(CCN(CCCC(=O)c3ccc(F)cc3)CC2)C1=O (stereo not given)

>  <metric.name>
GI50

>  <value.reported>
10.8 µM (inactive)

$$$$
>  <compound>
O=C1Nc2ccccc2[C@]12C[C@H]2c1ccccn1

>  <metric.name>
GI50

>  <value.reported>
> 100 µM (inactive)

$$$$
>  <compound>
COc1cc2ncnc(Nc3cccc(Cl)c3)c2cc1OC

>  <metric.name>
GI50

>  <value.reported>
14.2 µM (inactive)

$$$$
>  <compound>
CC(C)(C)N/N=C(\C(=O)Nc1ccc([N+](=O)[O-])cc1[N+](=O)[O-])c1nc2ccc([N+](=O)[O-])cc2nc1O

>  <metric.name>
GI50

>  <value.reported>
> 100 µM (inactive)

$$$$
>  <compound>
COc1cc(NC(C)CCCN)c2nccc(C)c2c1 (stereo not given)

>  <metric.name>
GI50

>  <value.reported>
> 10 µM (inactive)

$$$$
